molecular target: KRAS WT (Homo sapiens (Human), UniProt P01116+P62937); test: Ras-Raf disruption/FRET/MOA assay (BRAF RBD, Cyclophilin A); assay type: biochemical; settings: read-out: KRAS WT FRET data IC50
Sequence (P01116 other isoform, or with tags, fused parts or gaps): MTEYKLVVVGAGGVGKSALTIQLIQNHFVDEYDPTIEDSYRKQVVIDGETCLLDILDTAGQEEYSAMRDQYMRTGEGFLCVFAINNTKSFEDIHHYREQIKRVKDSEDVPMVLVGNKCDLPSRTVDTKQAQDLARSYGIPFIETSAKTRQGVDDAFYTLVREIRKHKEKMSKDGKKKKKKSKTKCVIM
Sequence (P62937 whole entry): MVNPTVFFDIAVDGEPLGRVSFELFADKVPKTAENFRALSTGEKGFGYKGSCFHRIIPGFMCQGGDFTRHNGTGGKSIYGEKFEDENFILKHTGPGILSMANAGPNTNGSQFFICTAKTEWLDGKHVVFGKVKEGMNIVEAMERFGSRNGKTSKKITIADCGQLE
I'd be grateful if you could share measured IC50 for these entries.

CCn1c(-c2cnccc2COC)c2c3cc(ccc31)-c1cc(O)cc(c1)C[C@H](NC(=O)[C@H](C(C)C)N(C)C(=O)[C@H]1CCN(C(=O)C(C)(C)N)C1)C(=O)N1CCC[C@H](N1)C(=O)OCC(C)(C)C2 [Compound A15]
0.1 to 1 µM

Go through the items and report each one's IC50.
1. CCn1c(-c2cccnc2[C@H](C)OC)c2c3cc(ccc31)-c1cc(O)cc(c1)C[C@H](NC(=O)[C@H](C(C)C)N(C)C(=O)C1(CN)CC1)C(=O)N1CCC[C@H](N1)C(=O)OCC(C)(C)C2 [Compound A139]
2. CCn1c(-c2cccnc2[C@H](C)OC)c2c3cc(ccc31)-c1cc(cc(S(C)(=O)=O)c1)C[C@H](NC(=O)[C@H](C(C)C)N(C)C(C)=O)C(=O)N1CCC[C@H](N1)C(=O)OCC(C)(C)C2 [Compound A154]
3. CCn1c(-c2cccnc2[C@H](C)OC)c2c3cc(ccc31)-c1cc(O)cc(c1)C[C@H](NC(=O)[C@H](C(C)C)N(C)C(=O)C1Cc3nccn3C1)C(=O)N1CCC[C@H](N1)C(=O)OCC(C)(C)C2 (some centres unmarked) [Compound A249]
4. CCn1c(-c2cccnc2[C@H](C)OC)c2c3cc(ccc31)-c1csc(n1)C[C@H](NC(=O)[C@@H]1CCO1)C(=O)N1CCC[C@H](N1)C(=O)OCC(C)(C)C2 [Compound A359]
5. CCn1c(-c2cccnc2[C@H](C)OC)c2c3cc(ccc31)-c1cc(O)cc(c1)C[C@H](NC(=O)[C@H](C(C)C)N(C)C(=O)C13CCC(CO1)C3)C(=O)N1CCC[C@H](N1)C(=O)OCC(C)(C)C2 [Compound A410]

0.01 to 0.1 µM
> 10 µM
0.01 to 0.1 µM
1 to 10 µM
0.01 to 0.1 µM

Dear colleague, could you please provide IC50 for the molecules listed below?
1. CCn1c(-c2cccnc2[C@H](C)OC)c2c3cc(ccc31)-c1cc(O)cc(c1)C[C@H](NC(=O)[C@H](C(C)C)N(C)C(=O)C1CCNC13CCC3)C(=O)N1CCC[C@H](N1)C(=O)OCC(C)(C)C2 (some centres unmarked) [Compound A393]
2. CCn1c(-c2cccnc2[C@H](C)OC)c2c3cc(ccc31)-c1csc(n1)C[C@H](NC(=O)[C@H](C(C)C)N(C)C(=O)N1CC3(CCOCC3)C1)C(=O)N1CCC[C@H](N1)C(=O)OCC(C)(C)C2 [Compound A521]
3. CCn1c(-c2cccnc2[C@H](C)OC)c2c3cc(ccc31)-c1cc(O)cc(c1)C[C@H](NC(=O)[C@H](C(C)C)N(C)C(=O)[C@H]1CCC(=O)O1)C(=O)N1CCC[C@H](N1)C(=O)OCC(C)(C)C2 [Compound A405]
4. CCn1c(-c2cnccc2COC)c2c3cc(ccc31)-c1cc(O)cc(c1)C[C@H](NC(=O)[C@H](C(C)C)N(C)C(=O)N1CCN(C)CC1)C(=O)N1CCC[C@H](N1)C(=O)OCC(C)(C)C2 [Compound A46]
5. CCn1c(-c2cnccc2COC)c2c3cc(ccc31)-c1cc(O)cc(c1)C[C@H](NC(=O)[C@H](C(C)C)N(C)C(=O)c1ncc[nH]1)C(=O)N1CCC[C@H](N1)C(=O)OCC(C)(C)C2 [Compound A64]

0.01 to 0.1 µM
0.1 to 1 µM
0.01 to 0.1 µM
0.1 to 1 µM
0.1 to 1 µM
